B1: SOAT1 (parent)
chain: KSAAMLAVFAVSAVVHEYALAVCL

Variants of: B1
Protocol: protein stability index of a GFP-peptide fusion (GPS, HEK-293T) (PSI 1-6); higher = more stable;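 note: lentivirally expressed fusions sorted by FACS into six bins by GFP to DsRed ratio, PSI derived from sequencing read proportions per bin multiplied by bin number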
Condition Notes: c terminus: a fixed tail appended
// values below are reported protein stability index
Quantity: protein stability index

KSAAMLAVFVVSAVVHEYALAVCL [A10V]	3.03
KRAAMLAVFAVSAVVHEYALAVCL [S2R]	2.91
KSAGMLAVFAVSAVVHEYALAVCL [A4G]	2.92
